TEST SUMMARY: chemical genetic growth profiling, strain panel (AID 1159580);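 also: tested at 20 µM; growth read once vehicle control cultures reached saturation at 30 °C; 1 = growth at the plate median or of vehicle wells; lower values mean less growth of the strain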
STUDY CONDITIONS: S. cerevisiae deletion strains, growth OD, locus YIL125W, strain kgd1, active compounds read low
The whole screen tested about 5,500 compounds, of which about 2,000 (36%) were called active. Roughly 18% stayed inconclusive and do not appear here. The list shows a part of the results.
normalized growth listing for selected compounds.
Please respond with just the number, no unit label.

Answered examples (3):
[
  {
    "COMPOUND": "C=C1C2=CC(=O)O[C@@H](c3ccoc3)[C@]2(C)CCC1[C@@]1(C)C=CC(=O)C(C)(C)[C@@H]1CC(=O)OC (some centres undefined)",
    "normalized growth": 0.995
  },
  {
    "COMPOUND": "COc1cc2c(cc1O)C(Cc1ccc(O)cc1)N(C)CC2 (centres undefined)",
    "normalized growth": 1.01
  },
  {
    "COMPOUND": "C=C1C2CC[C@@]3(C)[C@H](c4ccoc4)OC(=O)C[C@]13O[C@H]1CC(=O)C(C)(C)C(CC(=O)OC)[C@@]21C (some centres undefined)",
    "normalized growth": 1
  }
]

Q) So what's the measured normalized growth for this one? C[C@]12C=CC(=O)C=C1CCC1C3C[C@@H](O)[C@](O)(C(=O)CO)[C@@]3(C)C[C@H](O)[C@@]12F (some centres undefined)
A) 0.989

----------
normalized growth listing for selected compounds.
TEST SUMMARY: chemical genetic growth profiling, strain panel (AID 1159580)
STUDY CONDITIONS: S. cerevisiae deletion strains, growth OD, locus YGR135W, strain pre9, active compounds read low
Among all 5,500 compounds or so, about 2,000 (36%) were called active. Not shown: some 18% with an inconclusive outcome. The list shows a part of the results.
Please respond with just the number, no unit label.

[
  {
    "COMPOUND": "C[C@H](CCC(=O)O)[C@H]1CCC2C3C(CC[C@@]21C)[C@@]1(C)CC[C@@H](O)C[C@H]1C[C@@H]3O (stereo partly drawn)",
    "MEASURE": "normalized growth",
    "REPORTED MEASUREMENT": 0.975
  },
  {
    "COMPOUND": "COC(=O)CCC(C)C1CCC2C3CC[C@@H]4C[C@H](O)CC[C@]4(C)C3C[C@H](O)[C@]12C (stereo partly drawn)",
    "MEASURE": "normalized growth",
    "REPORTED MEASUREMENT": 1.01
  },
  {
    "COMPOUND": "C=C[C@H]1CN2CC[C@H]1C[C@@H]2[C@H](O)c1ccnc2ccccc12",
    "MEASURE": "normalized growth",
    "REPORTED MEASUREMENT": 0.978
  },
  {
    "COMPOUND": "CCCC(CCC)C(=O)O",
    "MEASURE": "normalized growth",
    "REPORTED MEASUREMENT": 1
  },
  {
    "COMPOUND": "COC(=O)CCC(C)[C@H]1CCC2C3C(C[C@H](O)[C@@]21C)[C@@]1(C)CC[C@@H](O)C[C@H]1C[C@H]3O (stereo partly drawn)",
    "MEASURE": "normalized growth",
    "REPORTED MEASUREMENT": 1
  }
]

Q) So what's the measured normalized growth for this one? COc1c2ccoc2nc2c(OC)c(OCC(O)C(C)(C)O)ccc12 (stereo not drawn)
A) 0.995

Q) So what's the measured normalized growth for this one? "S=P(N1CC1)(N1CC1)N1CC1"
A) 0.996

Q) So what's the measured normalized growth for this one? "O=c1[nH]cnc2[nH]ncc12"
A) 1.01

----------
normalized growth listing for selected compounds.
TEST SUMMARY: chemical genetic growth profiling, strain panel (AID 1159580);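 also: tested at 20 µM; growth read once vehicle control cultures reached saturation at 30 °C; 1 = growth at the plate median or of vehicle wells; lower values mean less growth of the strain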
STUDY CONDITIONS: S. cerevisiae deletion strains, growth OD, locus YOR083W, strain WHI5, active compounds read low
The campaign covered roughly 5,500 compounds. About 2,000 (36%) were called active. Not shown: some 18% with an inconclusive outcome. The list shows a part of the results.

Answered examples (2):
[
  {
    "COMPOUND": "NS(=O)(=O)c1cc2c(cc1Cl)NC(C1CC3C=CC1C3)NS2(=O)=O (stereo not given)",
    "normalized growth": "1 (inactive)"
  },
  {
    "COMPOUND": "CC(CCC(=O)O)[C@H]1CCC2C3CC[C@@H]4C[C@H](O)CC[C@]4(C)C3CC[C@@]21C (stereo not given in full)",
    "normalized growth": "0.844 (active)"
  }
]

Q) So what's the measured normalized growth for this one? "CN1CCN(C2=Nc3ccccc3Oc3ccc(Cl)cc32)CC1"
A) 0.945 (inactive)

Q) So what's the measured normalized growth for this one? "Clc1ccc2c(c1)C(N1CCNCC1)=Nc1ccccc1O2"
A) 0.937 (inactive)

Q) So what's the measured normalized growth for this one? CC(CCC(=O)O)[C@H]1CCC2C3C(C[C@H](O)[C@@]21C)[C@@]1(C)CC[C@@H](O)C[C@H]1C[C@H]3O (stereo not given in full)
A) 1.01 (inactive)

----------
normalized growth listing for selected compounds.
TEST SUMMARY: chemical genetic growth profiling, strain panel (AID 1159580);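 also: tested at 20 µM; growth read once vehicle control cultures reached saturation at 30 °C; 1 = growth at the plate median or of vehicle wells; lower values mean less growth of the strain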
STUDY CONDITIONS: S. cerevisiae deletion strains, growth OD, locus YDR159W, strain sac3, active compounds read low
Among all 5,500 compounds or so, about 2,000 (36%) were called active. Roughly 18% stayed inconclusive and do not appear here. This is one part of the list.
Please respond with just the number, no unit label.

Answered examples (5):
[
  {
    "COMPOUND": "Nc1cc(-c2ccncc2)c[nH]c1=O",
    "normalized growth": 0.928
  },
  {
    "COMPOUND": "O=C(O)c1ccccc1C(=O)Nc1ccc(S(=O)(=O)Nc2nccs2)cc1",
    "normalized growth": 0.992
  },
  {
    "COMPOUND": "CC(CCC(=O)O)[C@H]1CCC2C3CC[C@@H]4CCCC[C@]4(C)C3CC[C@@]21C (some centres undefined)",
    "normalized growth": 0.998
  },
  {
    "COMPOUND": "CCCC(CCC)C(=O)O",
    "normalized growth": 1.01
  },
  {
    "COMPOUND": "C[C@H](CCC(=O)O)[C@H]1CCC2C3C(CC[C@@]21C)[C@@]1(C)CC[C@@H](O)C[C@H]1C[C@H]3O (some centres undefined)",
    "normalized growth": 1.02
  }
]

Kindly consider the entry below.
Q) So what's the measured normalized growth for this one? CC(CCC(=O)O)[C@H]1CCC2C3C[C@H](O)[C@@H]4C[C@H](O)CC[C@]4(C)C3CC[C@@]21C (some centres undefined)
A) 1.05

----------
normalized growth listing for selected compounds.
TEST SUMMARY: chemical genetic growth profiling, strain panel (AID 1159580);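 also: tested at 20 µM; growth read once vehicle control cultures reached saturation at 30 °C; 1 = growth at the plate median or of vehicle wells; lower values mean less growth of the strain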
STUDY CONDITIONS: S. cerevisiae deletion strains, growth OD, locus YPL078C, strain atp4, active compounds read low
Out of some 5,500 compounds screened, about 2,000 (36%) were called active. Another 18% or so got no clear call; they are omitted. The list shows a part of the results.
Please respond with just the number, no unit label.

[
  {
    "COMPOUND": "CC1(C)C(O)CC(O)C2(C)C1CC(O)C1(C)C2CCC2(C)C(c3ccoc3)OC(=O)C3OC321 (stereo unspecified)",
    "normalized growth": 0.986
  },
  {
    "COMPOUND": "CCCCS(=N)(=O)CCC(N)C(=O)O (stereo unspecified)",
    "normalized growth": 0.994
  },
  {
    "COMPOUND": "CN(C)CCOC(=O)C(c1ccccc1)C1(O)CCCC1 (stereo unspecified)",
    "normalized growth": 0.961
  },
  {
    "COMPOUND": "C[C@@H]1CC2C3C[C@H](F)C4=CC(=O)C=C[C@]4(C)[C@@]3(F)[C@@H](O)C[C@]2(C)[C@@]1(O)C(=O)COC(=O)C(C)(C)C (stereo partly specified)",
    "normalized growth": 0.974
  },
  {
    "COMPOUND": "C[C@@H](N)[C@@H](O)c1ccccc1",
    "normalized growth": 0.98
  }
]

Q) So what's the measured normalized growth for this one? "O=C(Nc1ccccc1)Nc1ccccc1"
A) 0.923

Q) So what's the measured normalized growth for this one? "O=C(O)CCCOc1ccc(Cl)cc1Cl"
A) 0.93

Q) So what's the measured normalized growth for this one? "O=c1cc(-c2ccccc2)oc2cccc(O)c12"
A) 0.807

Q) So what's the measured normalized growth for this one? "COC(=O)CCCOc1ccc(Cl)cc1Cl"
A) 0.948

Q) So what's the measured normalized growth for this one? "O=[N+]([O-])c1cccc2c(Br)[nH]nc12"
A) 0.874

Q) So what's the measured normalized growth for this one? "COc1cc([C@H]2Oc3cc([C@H]4Oc5cc(O)cc(O)c5C(=O)[C@@H]4O)ccc3O[C@@H]2CO)ccc1O"
A) 1.02
